Target: Glucose-dependent insulinotropic receptor (Homo sapiens)
Assay: Agonist activity at human GPR119 expressed in CHOK1 cells assessed as cAMP accumulation after 1 hr by ultra LANCE assay relative to GSK1292263
Format: functional, cell-based
Reported %max by item:

# Compound, %max, %
measured = [
    ("CC(C)(C)OC(=O)N1C[C@@H]2CC[C@H]1C[C@@H]2Nc1ncnc2c(Nc3ccc(S(C)(=O)=O)cc3)ncnc12 (relative stereo)", 71.8),
    ("CC(C)(C)OC(=O)N1[C@@H]2CC[C@H]1C[C@@H](Oc1ncnc3c(Nc4ccc(C#N)cc4F)ncnc13)C2", 78.9),
    ("CC(C)(C)OC(=O)N1C[C@@H]2CC[C@H]1C[C@@H]2Nc1ncnc2c(Nc3ccc(C#N)cc3F)ncnc12 (relative stereo)", 73.3),
    ("CC(C)(C)OC(=O)N1CCC(Nc2ncnc3c(Nc4ccc(C#N)cc4F)ncnc23)CC1", 67.2),
    ("CC(C)(C)OC(=O)N1[C@@H]2CC[C@H]1C[C@H](Nc1ncnc3c(Nc4ccc(S(C)(=O)=O)cc4F)ncnc13)C2", 65.3),
    ("CC(C)(C)OC(=O)N1CCC(Oc2ncnc3c(Nc4ccc(C#N)cc4F)ncnc23)CC1", 53.4),
]
